Taken from PubChem BioAssay (EPA / NIEHS).

Read-out: Nuclear factor erythroid 2-related factor 2 (Homo sapiens)
Experiment: LTEA_HepaRG_NFE2L2: Life Technologies and Expression Analysis (LTEA) Assay for Nuclear factor erythroid 2-related factor 2 (NFE2L2) Transcription Factor using HepaRG (AID 2283527)
Settings: mRNA level, 48 h; actives raise or lower the signal
Active and inactive are the calls of the source. Rule for the calls: active = hit-call score of the fitted dose curve at least 0.9, where 1 is the maximum; inactive = score below 0.9.
Labels: 1.0 for active, 0.0 for inactive

C=CCC1=C(C)[C@@H](OC(=O)[C@@H]2[C@@H](C=C(C)C)C2(C)C)CC1=O    0.0
O=C(Nc1ccccc1)Nc1ccnc(Cl)c1    1.0
CNC(=S)S    0.0
CCNc1nc(Cl)nc(NC(C)C)n1    0.0
CCOc1cc(Oc2ccc(C(F)(F)F)cc2Cl)ccc1[N+](=O)[O-]    1.0
Cc1cc(Cl)ccc1OCC(=O)O    0.0
COC(=O)C=C(C)OP(=O)(OC)OC    0.0

----------
Read-out: sulfotransferase 2A1 (SULT2A1), SULT2A1 (gene 6822)
Assay: LTEA_HepaRG_SULT2A1: Life Technologies and Expression Analysis (LTEA) Assay for sulfotransferase 2A1 (SULT2A1) using HepaRG (AID 2283531)
Settings: mRNA level, 48 h; actives raise or lower the signal
Active and inactive are the calls of the source. How the source made its calls: active means hit-call score of the fitted dose curve at least 0.9, where 1 is the maximum; inactive means score below 0.9.
Possible outcomes: Y (active), N (inactive)

CON(C)C(=O)Nc1ccc(Cl)c(Cl)c1    N
Cc1c(F)c(F)c(COC(=O)C2C(/C=C(\Cl)C(F)(F)F)C2(C)C)c(F)c1F (configuration not stated)    N
CC1=C(C(=O)Nc2ccccc2)SCCO1    N
CC1COC(Cn2cncn2)(c2ccc(Oc3ccc(Cl)cc3)cc2Cl)O1 (configuration not stated)    Y
COc1nc(NC(C)C)nc(NC(C)C)n1    N
CC(C)(C)c1ccc(CSc2cnn(C(C)(C)C)c(=O)c2Cl)cc1    Y
CCCCNC(=O)n1c(NC(=O)OC)nc2ccccc21    N

----------
Test: BSK_3C_Proliferation: Cell Proliferation Assessment in the BioMAP Diversity Plus: 3C Assay (AID 2283006)
Conditions: primary human endothelial cells (HUVEC)
Calls of active or inactive are those of the source. The calls were made as follows: active = hit-call score of the fitted dose curve at least 0.9, where 1 is the maximum; inactive = score below 0.9.
Outcomes: active, inactive

O=C(Nc1ccccc1)Nc1ccnc(Cl)c1    inactive
COc1nc(C)nc(NC(=O)NS(=O)(=O)c2ccccc2CCC(F)(F)F)n1    inactive
C#CCOS(=O)OC1CCCCC1Oc1ccc(C(C)(C)C)cc1 (configuration not stated)    active
Oc1ccccc1-c1ccccc1    inactive
CCON=C(CC)C1=C(O)CC(c2c(C)cc(C)cc2C)CC1=O (configuration not stated)    inactive
CCOP(=S)(OCC)SCn1c(=O)oc2cc(Cl)ccc21    active
CC(C)C1(C)N=C(c2nc3ccccc3cc2C(=O)O)NC1=O (configuration not stated)    inactive
CN(C)C(=S)SSC(=S)N(C)C    active
C=CC1(C)OC(=O)N(c2cc(Cl)cc(Cl)c2)C1=O (configuration not stated)    inactive
CCOC(=O)C(Cl)Cc1cc(-n2nc(C)n(C(F)F)c2=O)c(F)cc1Cl (configuration not stated)    inactive
CCCN(CCC)c1c([N+](=O)[O-])cc(S(N)(=O)=O)cc1[N+](=O)[O-]    active
COc1nc(C)nc(NC(=O)NS(=O)(=O)c2ccccc2Cl)n1    inactive

----------
Read-out: xenobiotic metabolism (CYP1A2), CYP1A2 (gene 1544)
Test: CLD_CYP1A2_6hr: CellzDirect (CLD) Gene Expression Assay for xenobiotic metabolism (CYP1A2) at 6 hours (AID 2283663)
Results filed as inconclusive are left out. The source made the active and inactive calls. The calls were made as follows: active = hit-call score of the fitted dose curve at least 0.9, where 1 is the maximum; inconclusive = response in the unintended direction; inactive = score below 0.9.
PROPERTY_LABEL: outcome

C=CCC1=C(C)[C@@H](OC(=O)[C@@H]2[C@@H](C=C(C)C)C2(C)C)CC1=O    inactive
CCCCNC(=O)n1c(NC(=O)OC)nc2ccccc21    inactive
CCCCC(CC)COC(=O)c1ccccc1C(=O)OCC(CC)CCCC (stereo not drawn)    inactive

----------
Experiment: APR_HepG2_p53Act_72hr: Apredica 72-hour HepG2 Assay for p53 Activation (AID 2282923);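 note: average cellular p53 protein immunofluorescence intensity in HepG2 cells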
Conditions: high-content imaging, actives raise or lower the signal
Active and inactive are the calls of the source. The calls were made as follows: active = hit-call score of the fitted dose curve at least 0.9, where 1 is the maximum; inactive = score below 0.9.
PROPERTY_LABEL: AC50

COC(=O)C(C)Oc1ccc(Oc2ccc(Cl)cc2Cl)cc1 (stereo not given)    inactive
C#CCOS(=O)OC1CCCCC1Oc1ccc(C(C)(C)C)cc1 (stereo not given)    inactive
CS/C(C)=N/OC(=O)N(C)SN(C)C(=O)O/N=C(\C)SC    inactive
CCNc1nc(Cl)nc(NC(C)C)n1    inactive
CNC(=O)ON=CC(C)(C)SC    inactive
COP(=S)(OC)Oc1nc(Cl)c(Cl)cc1Cl    inactive
CC(Oc1ccc(Cl)cc1Cl)C(=O)O (stereo not given)    inactive
N#Cc1nn(-c2c(Cl)cc(C(F)(F)F)cc2Cl)c(N)c1S(=O)C(F)(F)F (stereo not given)    inactive
COc1nc(C)nc(NC(=O)NS(=O)(=O)c2ccccc2CCC(F)(F)F)n1    inactive
CCNc1nc(Cl)nc(NCC)n1    inactive
CCCCNC(=O)n1c(NC(=O)OC)nc2ccccc21    inactive
O=C(O)COc1nc(Cl)c(Cl)cc1Cl    inactive
OC(c1ccc(Cl)cc1)(c1cncnc1)c1ccccc1Cl (stereo not given)    inactive
CCCCNC(=O)OCC#CI    inactive
COc1cnc(OC)n2nc(NS(=O)(=O)c3c(OCC(F)F)cccc3C(F)(F)F)nc12    inactive
N#CC(CCc1ccc(Cl)cc1)(Cn1cncn1)c1ccccc1 (stereo not given)    inactive
O=C(Nc1ccccc1)Nc1ccnc(Cl)c1    inactive
CC(C)Oc1cc(-n2nc(C(C)(C)C)oc2=O)c(Cl)cc1Cl    inactive
CCCCC(CC)COC(=O)c1ccccc1C(=O)OCC(CC)CCCC (stereo not given)    inactive
C=CCC1=C(C)[C@@H](OC(=O)[C@@H]2[C@@H](C=C(C)C)C2(C)C)CC1=O    107 µM (active)

----------
Test: IUF_NPC1b_proliferation_BrdU_72hr: Leibniz Research Institute for Environmental Medicine (IUF) 72-hour Neural Progenitor Cell Bromodeoxyuridine (BrdU) Proliferation Assay (NPC1b) (AID 2284207)
Active and inactive are the calls of the source. How the source made its calls: active means hit-call score of the fitted dose curve at least 0.9, where 1 is the maximum; inactive means score below 0.9.
Outcome codes: 1 (active), 0 (inactive)

CCCCC(CC)COC(=O)c1ccccc1C(=O)OCC(CC)CCCC (stereo not drawn)    0
COC(=O)N(OC)c1ccccc1COc1ccn(-c2ccc(Cl)cc2)n1    1
COP(N)(=O)SC (stereo not drawn)    0

----------
Read-out: Cytochrome P450 (CYP1A1), CYP1A1 (gene 1543)
Experiment: LTEA_HepaRG_CYP1A1: Life Technologies and Expression Analysis (LTEA) Assay for Cytochrome P450 (CYP1A1) using HepaRG (AID 2283454)
Conditions: mRNA level, 48 h; actives raise or lower the signal
Activity calls are given as the source filed them. How the source made its calls: active means hit-call score of the fitted dose curve at least 0.9, where 1 is the maximum; inactive means score below 0.9.
Possible outcomes: YES = active, NO = inactive

C#CCOS(=O)OC1CCCCC1Oc1ccc(C(C)(C)C)cc1 (stereo unspecified)    NO
N#Cc1nn(-c2c(Cl)cc(C(F)(F)F)cc2Cl)c(N)c1S(=O)C(F)(F)F (stereo unspecified)    YES
COC(=O)c1ccccc1C(=O)OC    NO
OC(c1ccc(Cl)cc1)(c1cncnc1)c1ccccc1Cl (stereo unspecified)    YES
CCOc1cc(Oc2ccc(C(F)(F)F)cc2Cl)ccc1[N+](=O)[O-]    YES
CC(C)C1(C)N=C(c2nc3ccccc3cc2C(=O)O)NC1=O (stereo unspecified)    YES

----------
Read-out: TIMP metallopeptidase inhibitor 1 (TIMP1), TIMP1 (gene 7076)
Assay: BSK_hDFCGF_TIMP1: BioMAP Diversity Plus: hDFCGF Assay for TIMP metallopeptidase inhibitor 1 (TIMP1) Biomarker Activity (AID 2283062)
Settings: primary human foreskin fibroblasts; actives raise or lower the signal
Activity calls are given as the source filed them. How the source made its calls: active means hit-call score of the fitted dose curve at least 0.9, where 1 is the maximum; inactive means score below 0.9.
Possible outcomes: active, inactive

C#CCOS(=O)OC1CCCCC1Oc1ccc(C(C)(C)C)cc1 (stereo not given)    active
CCON=C(CC)C1=C(O)CC(c2c(C)cc(C)cc2C)CC1=O (stereo not given)    inactive
O=C(O)COc1nc(Cl)c(Cl)cc1Cl    inactive
CCOC(=O)C(Cl)Cc1cc(-n2nc(C)n(C(F)F)c2=O)c(F)cc1Cl (stereo not given)    inactive
CNC(=O)ON=CC(C)(C)SC    inactive
C=CC1(C)OC(=O)N(c2cc(Cl)cc(Cl)c2)C1=O (stereo not given)    inactive
CCc1nn(C)c(C(=O)NCc2ccc(C(C)(C)C)cc2)c1Cl    active
CN(C)C(=S)SSC(=S)N(C)C    active
CCNc1nc(Cl)nc(NC(C)C)n1    inactive
C=CCC1=C(C)[C@@H](OC(=O)[C@@H]2[C@@H](C=C(C)C)C2(C)C)CC1=O    active
CCCCOC(=O)c1ccccc1C(=O)OCCCC    inactive
N#Cc1cc(Br)c(O)c(Br)c1    inactive
CC(C)C1(C)N=C(c2nc3ccccc3cc2C(=O)O)NC1=O (stereo not given)    inactive
CCOP(=S)(OCC)SCn1c(=O)oc2cc(Cl)ccc21    inactive
COC(=O)C(C)Oc1ccc(Oc2ccc(Cl)cc2Cl)cc1 (stereo not given)    inactive
